target: human Fc (human); assay: ELISA, negative control
measure: optical density (OD)
A number alone suffices; assume OD.

Observe how each entry below is paired with its result.
binder="368_H10 (antibody, V domains shown) VH: EVQLLESGGGLVQPGGSLRLSCAASGFTFSSYSMNWVRQAPGKGLEWVSSINYNSGYKGYADSVKGRFTISRDNSKNTLYLQMNSLRAEDTAVYYCARSATWHDTHLDYWGQGTLVTVSS VL: DIQMTQSPSSLSASVGDRVTITCRASQSIVSYVNWYQQKPGKAPKLVIYAVTSLASGVPSRFSGSGSGTDFTLTISSLQPEDFATYYCQQSYETPLTFGGGTKVEIK" measurement=0.281
binder="376_G11 (antibody, V domains shown) VH: EVQLLESGGGLVQPGGSLRLSCAASGFTFSSYSMNWVRQAPGKGLEWVSGINYNSGYKSYADSVKGRFTISRDNSKNTLYLQMNSLRAEDTAVYYCARSATWHDTHLDYWGQGTLVTVSS VL: DIQMTQSPSSLSASVGDRVTITCRASQSIVTYVNWYQQKPGKAPKLVIYAATSLASGVPSRFSGSGSGTDFTLTISSLQPEDFATYYCQQSYNLPLTFGGGTKVEIK" measurement=0.285

Return reported optical density; argument: 369_G09 (antibody, V domains shown) VH: EVQLLESGGGLVQPGGSLRLSCAASGFTFDSYSMNWVRQAPGKGLEWVSNINYNGGYTGYADSVKGRFTISRDNSKNTLYLQMNSLRAEDTAVYYCARSATWHDTHLDYWGQGTLVTVSS VL: DIQMTQSPSSLSASVGDRVTITCRASQSIVTYLNWYQQKPGKAPKLLIYAATSRASGVPSRFSGSGSGTDFTLTISSLQPEDFATYYCQQSYDLPLTFGGGTKVEIK 0.395
